target: mMC3R (Mus musculus); assay: AlphaScreen cAMP agonist assay, HEK293 cells stably expressing mMC3R; details: at 1 mM; not enough stimulation to determine EC50
Sequence (P33033 whole entry): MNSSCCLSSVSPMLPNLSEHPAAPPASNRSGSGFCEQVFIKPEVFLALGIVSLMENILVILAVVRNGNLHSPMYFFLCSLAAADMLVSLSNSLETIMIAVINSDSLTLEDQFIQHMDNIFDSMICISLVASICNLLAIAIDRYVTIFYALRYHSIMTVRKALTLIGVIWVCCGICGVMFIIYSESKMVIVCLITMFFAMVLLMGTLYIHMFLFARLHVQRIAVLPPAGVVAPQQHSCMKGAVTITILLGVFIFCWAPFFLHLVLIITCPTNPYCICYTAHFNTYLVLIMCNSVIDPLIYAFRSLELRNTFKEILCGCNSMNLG
MEASURED_PARAMETER: mMC3R percent maximal stimulatory response (compared to NDP-MSH) (% @ 1 mM)
Only the number, expressed in % @ 1 mM, is required.

- MOLECULE: "CC(C)C[C@H]1CNC(=N)N1C[C@H]1CCCN1C[C@H](Cc1ccccc1)N1C[C@H]([C@@H](C)O)N(CC2CCC(C(C)(C)C)CC2)C1=N (some centres unmarked)"
  SYSTEM_UNDER_TEST: "mMC3R (Mus musculus)"
  UNIT_OF_MEASUREMENT: "% @ 1 mM"
  VALUE: 50
- MOLECULE: "CCC[C@@H]1CN([C@@H](CC2CCCCC2)CN2CCC[C@H]2CN2C(=N)NC[C@H]2C(C)C)C(=N)N1CC1CCC(C(C)(C)C)CC1 (some centres unmarked)"
  SYSTEM_UNDER_TEST: "mMC3R (Mus musculus)"
  UNIT_OF_MEASUREMENT: "% @ 1 mM"
  VALUE: 65

Any idea what its mMC3R percent maximal stimulatory response (compared to NDP-MSH) is? The molecule is CC(C)C[C@@H]1CNC(=N)N1C[C@H]1CCCN1C[C@H](Cc1ccccc1)N1C[C@H]([C@@H](C)O)N(CC2CCC(C(C)(C)C)CC2)C1=N (some centres unmarked)
60

Any idea what its mMC3R percent maximal stimulatory response (compared to NDP-MSH) is? The molecule is CC(C)C[C@@H]1CNC(=N)N1C[C@H]1CCCN1C[C@@H](Cc1ccccc1)N1C[C@H]([C@@H](C)O)N(CC2CCC(C(C)(C)C)CC2)C1=N (some centres unmarked)
50

Any idea what its mMC3R percent maximal stimulatory response (compared to NDP-MSH) is? The molecule is CC(C)C[C@H]1CNC(=N)N1C[C@@H]1CCCN1C[C@@H](Cc1ccccc1)N1C[C@H]([C@@H](C)O)N(CC2CCC(C(C)(C)C)CC2)C1=N (some centres unmarked)
50

----------
biological target: mMC5R (Mus musculus); experiment: AlphaScreen cAMP agonist assay, HEK293 cells stably expressing mMC5R; details: relative to 2718.002
MEASURED_PARAMETER: fold decreased mMC5R agonist potency (fold)
Only the number, expressed in fold, is required.

Take a look at these entries with their results.
- COMPOUND: "CC(C)CC1CNC(=N)N1CC1CCCN1CC(Cc1c[nH]c2ccccc12)N1CC(C(C)O)N(CC2CCC(C(C)(C)C)CC2)C1=N (stereo not drawn)"
  fold decreased mMC5R agonist potency, fold: 50
- COMPOUND: "CC(C)C[C@@H]1CNC(=N)N1C[C@@H]1CCCN1C[C@@H](CC1CCCCC1)N1C[C@H]([C@@H](C)O)N(CC2CCC(C(C)(C)C)CC2)C1=N (stereo partly drawn)"
  fold decreased mMC5R agonist potency, fold: 8

Any idea what its fold decreased mMC5R agonist potency is? The compound is CC(C)C[C@@H]1CNC(=N)N1C[C@@H]1CCCN1C[C@H](CC1CCCCC1)N1C[C@@H]([C@H](C)O)N(CC2CCC(C(C)(C)C)CC2)C1=N (stereo partly drawn)
17

----------
molecular target: mMC5R (Mus musculus, UniProt P41149); assay: AlphaScreen cAMP agonist assay, HEK293 cells stably expressing mMC5R; settings: read-out: mMC5R EC50; agonist; mean ± SEM, at least three independent experiments; >1,000,000 = no agonist activity up to 1 mM
Sequence (P41149 whole entry): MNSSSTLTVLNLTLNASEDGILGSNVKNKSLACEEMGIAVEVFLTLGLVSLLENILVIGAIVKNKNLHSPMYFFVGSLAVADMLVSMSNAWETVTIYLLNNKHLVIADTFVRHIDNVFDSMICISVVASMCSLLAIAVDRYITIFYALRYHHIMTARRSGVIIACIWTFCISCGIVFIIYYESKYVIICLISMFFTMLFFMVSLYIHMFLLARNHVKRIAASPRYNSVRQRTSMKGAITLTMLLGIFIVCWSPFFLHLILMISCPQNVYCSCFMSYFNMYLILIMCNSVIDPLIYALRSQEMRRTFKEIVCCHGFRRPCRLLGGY
MEASURED_PARAMETER: EC50 (µM)
Only the number, expressed in µM, is required.

Any idea what its EC50 is? The compound is CCCCC1CNC(=N)N1CC1CCC(C(C)(C)C)CC1 (stereo not shown) [Compound 2718.021]
17
